Assay: Two step infusion study in healthy male subjects: pharmacokinetics (Tedisamil plasma concentration)
Format: in vivo
Conditions: male, human, iv, 0.4 mg/kg, after start of infusion, 0.4 mg/kg iv two step infusion, read-out: Time of peak plasma concentration (Tmax), range
quantityName: Tmax

Look up Tmax: C1CCC2(C1)C1CN(CC3CC3)CC2CN(CC2CC2)C1 [Tedisamil]
5 to 75 min

###

Test: Two step infusion study in healthy male subjects: pharmacokinetics (Tedisamil plasma concentration)
Type: in vivo
Details: human, 0.4 mg/kg tedisamil dihydrochloride iv, two step infusion over 30 minutes, read-out: AUC(0-inf), Geom. Mean
Protocol: A double-blind, placebo-controlled, randomized, single iv dose, two periods cross-over study to assess the safety, tolerability, pharmacodynamics and pharmacokinetics during and following a two step infusion of Tedisamil in healthy male subjects was performed with the following drug and dosages: Tedisamil dihydrochloride/0.4 mg/kg body weight infused over 30 minutes. […]
quantityName: AUC(0-inf) (ng·h/mL)
Kindly answer with a numeric value in ng·h/mL, unit omitted.

Look up AUC(0-inf): C1CCC2(C1)C1CN(CC3CC3)CC2CN(CC2CC2)C1
1720

###

Assay: Two step infusion study in healthy male subjects: pharmacokinetics (Tedisamil plasma concentration)
Format: in vivo
Details: human, 0.4 mg/kg tedisamil dihydrochloride iv, two step infusion over 30 minutes, read-out: AUC(0-t), Geom. Mean
quantityName: AUC(0-t)
A bare number is not enough; add the unit after it.

Look up AUC(0-t): C1CCC2(C1)C1CN(CC3CC3)CC2CN(CC2CC2)C1
1670 ng·h/mL

###

Experiment: Two step infusion study in healthy male subjects: pharmacokinetics (Tedisamil plasma concentration)
Assay type: in vivo
Conditions: male, human, iv, 0.4 mg/kg, after start of infusion, 0.4 mg/kg iv two step infusion, read-out: Time of peak plasma concentration (Tmax), median (converted)
quantityName: Tmax (min)
Kindly answer with a numeric value in min, unit omitted.

Look up Tmax: C1CCC2(C1)C1CN(CC3CC3)CC2CN(CC2CC2)C1 [Tedisamil]
12.5

###

Assay: Two step infusion study in healthy male subjects: pharmacokinetics (Tedisamil plasma concentration)
Type: in vivo
Settings: human, 0.4 mg/kg tedisamil dihydrochloride iv, two step infusion over 30 minutes, read-out: t½, Arithmetic mean (converted)
quantityName: half-life (h)
Kindly answer with a numeric value in h, unit omitted.

Look up half-life: C1CCC2(C1)C1CN(CC3CC3)CC2CN(CC2CC2)C1
5.5
